Please go through the items and note down their AC40.
# System: U2OS HRE-luciferase reporter, iron condition, luminescence
# assay.name: HRE-luciferase activation in iron medium, dose response, mechanism study for HIF pathway activator project, cell-based, U2OS, luminescence, dry powder, set 2 (AID 493237)
Calls of active or inactive are those of the source.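 Rule for the calls: active = fitted curve reaching 40% activation at a concentration no higher than the top valid dose tested; inconclusive = flat curve between 30 and 70% activation, or poor fit; inactive = the rest, including opposite-direction effects.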

# compound, tested.on, value.observed
rows = [
    ("CN1CCN(c2nc(-c3ccccn3)nnc2-c2ccccc2)CC1", "U2OS HRE-luciferase reporter, iron condition, luminescence", "25 µM"),
    ("Cc1ccc(Nc2nc(-c3ccccn3)nnc2-c2ccccc2)cn1", "U2OS HRE-luciferase reporter, iron condition, luminescence", "24.3 µM"),
    ("c1ccc(-c2nnc(-c3ccccn3)nc2NCCCN2CCOCC2)cc1", "U2OS HRE-luciferase reporter, iron condition, luminescence", "26.1 µM"),
    ("c1ccc(-c2nnc(-c3ccccn3)nc2N2CCC(c3ccccc3)C2)cc1 (stereo not drawn)", "U2OS HRE-luciferase reporter, iron condition, luminescence", "18.7 µM"),
]

Below is a list of compounds. For each, state its recorded AC40.
1. c1ccc(-c2nnc(Nc3nc(-c4ccccn4)nnc3-c3ccccc3)s2)cc1
2. C[C@H](Nc1nc(-c2ccccn2)nnc1-c1ccccc1)C1CCCCC1

1. > 38 µM (inactive)
2. 9.72 µM

###

# Tested on: U2OS HRE-luciferase reporter, iron condition, luminescence
# assay.name: HRE-luciferase activation in iron medium, dose response, mechanism study for HIF pathway activator project, cell-based, U2OS, luminescence, dry powder, set 2 (AID 493237)
Activity calls are given as the source filed them.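 Rule for the calls: active = fitted curve reaching 40% activation at a concentration no higher than the top valid dose tested; inconclusive = flat curve between 30 and 70% activation, or poor fit; inactive = the rest, including opposite-direction effects.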
Respond only with the outcome that fits, drawn from TRUE (active), FALSE (inactive)

# molecule, discrete.label
rows = [
    ("Cc1cccc(NC(=O)c2cc(-c3ccccc3)on2)n1", "FALSE"),
    ("O=C(Nc1ncc2ccccc2n1)c1cc(-c2ccccc2)on1", "FALSE"),
    ("c1ccc(-c2nnc(-c3ccccn3)nc2NCCN2CCOCC2)cc1", "TRUE"),
    ("c1ccc(-c2nnc(-c3ccccn3)nc2Nc2cnc3ccccc3n2)cc1", "TRUE"),
]

Now look at this one.
Each molecule tested received a call. Report the one for `Cc1cccc(CNc2nc(-c3ccccn3)nnc2-c2ccccc2)c1` .
TRUE

###

# System: U2OS HRE-luciferase reporter, iron condition, luminescence
# assay.name: HRE-luciferase activation in iron medium, dose response, mechanism study for HIF pathway activator project, cell-based, U2OS, luminescence, dry powder, set 2 (AID 493237)
Calls of active or inactive are those of the source.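 The calls were made as follows: active = fitted curve reaching 40% activation at a concentration no higher than the top valid dose tested; inconclusive = flat curve between 30 and 70% activation, or poor fit; inactive = the rest, including opposite-direction effects.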
Respond using exactly one of the listed classes: 1 = active, -1 = inactive

Example entries and their recorded answers appear below.
# molecule.smiles, discrete.label
records = [
    ("c1ccc(-c2ccc(CNc3nc(-c4ccccn4)nnc3-c3ccccc3)cc2)cc1", 1),
    ("OCCCNc1nc(-c2ccccn2)nnc1-c1ccccc1", 1),
    ("O=C(NCCCO)c1cc(-c2ccccc2)on1", 1),
]

State the result this test recorded for `C[C@@H](Nc1nc(-c2ccccn2)nnc1-c1ccccc1)C1CCCCC1` .
1

Lab log entry: `c1ccc(-c2nnc(-c3ccccn3)nc2N2CCN(c3ccncc3)CC2)cc1` — outcome as called in the assay?
1

Hi team, can someone confirm the assay call for `Cc1cccc(Nc2nc(-c3ccccn3)nnc2-c2ccccc2)n1` ?
1

Just curious, what result did `O=C(NC1Cc2ccccc2C1)c1cc(-c2ccccc2)on1` get here?
-1

###

# Test system: U2OS HRE-luciferase reporter, iron condition, luminescence
# assay.name: HRE-luciferase activation in iron medium, dose response, mechanism study for HIF pathway activator project, cell-based, U2OS, luminescence, dry powder, set 2 (AID 493237)
Calls of active or inactive are those of the source.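 Rule for the calls: active = fitted curve reaching 40% activation at a concentration no higher than the top valid dose tested; inconclusive = flat curve between 30 and 70% activation, or poor fit; inactive = the rest, including opposite-direction effects.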
measured.quantity: AC40

# compound, AC40
measured = [
    ("O=C(NCCCn1ccnc1)c1cc(-c2ccccc2)on1", "4.5 µM"),
]

Return reported AC40 values for all items listed beneath this line.
1. CCCCNC(=O)c1cc(-c2ccccc2)on1
2. c1ccc(-c2nnc(-c3ccccn3)nc2NCc2ccccn2)cc1
3. c1ccc(-c2nnc(-c3ccccn3)nc2NCC2CC2)cc1
4. O=C(NCc1ccccc1)c1cc(-c2ccccc2)on1
5. c1ccc(CNc2nc(-c3ccccn3)nnc2-c2ccccc2)cc1
6. Clc1cccc(CNc2nc(-c3ccccn3)nnc2-c2ccccc2)c1
7. c1ccc(CCNc2nc(-c3ccccn3)nnc2-c2ccccc2)cc1

3.76 µM
15.9 µM
24 µM
> 38 µM (inactive)
9.31 µM
11.6 µM
10.6 µM

For the 3 compounds below, give their AC40 values.
1. c1ccc(-c2cccc(CNc3nc(-c4ccccn4)nnc3-c3ccccc3)c2)cc1
2. CC(C)(C)CCNC(=O)c1cc(-c2ccccc2)on1
3. C=CCNc1nc(-c2ccccn2)nnc1-c1ccccc1

["10.1 µM", "8.89 µM", "26.5 µM"]

State the recorded AC40 for every item in the following list.
1. O=C(NCC1CC1)c1cc(-c2ccccc2)on1
2. Cc1ccccc1CNc1nc(-c2ccccn2)nnc1-c1ccccc1
3. c1ccc(-c2nnc(-c3ccccn3)nc2NCc2cccnc2)cc1
4. c1ccc(-c2nnc(-c3ccccn3)nc2NCC2CCCCC2)cc1
5. c1ccc(-c2nnc(-c3ccccn3)nc2N2CCC(N3CCOCC3)CC2)cc1
6. O=C(NCCCN1CCOCC1)c1cc(-c2ccccc2)on1

1: 3.19 µM; 2: 7.8 µM; 3: 25.9 µM; 4: 9.8 µM; 5: 21 µM; 6: 10.3 µM

For each of the items listed, what is its AC40?
1. Cc1ccc(CNc2nc(-c3ccccn3)nnc2-c2ccccc2)cc1C
2. CC(Nc1nc(-c2ccccn2)nnc1-c1ccccc1)c1ccccc1 (centres undefined)

6.44 µM
10.3 µM

###

# System: U2OS HRE-luciferase reporter, iron condition, luminescence
# assay.name: HRE-luciferase activation in iron medium, dose response, mechanism study for HIF pathway activator project, cell-based, U2OS, luminescence, dry powder, set 2 (AID 493237)
Activity calls are given as the source filed them.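 How the source made its calls: active means fitted curve reaching 40% activation at a concentration no higher than the top valid dose tested; inconclusive means flat curve between 30 and 70% activation, or poor fit; inactive means the rest, including opposite-direction effects.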
A correct response names exactly one class from t (active), f (inactive)

Recorded results for 9 compounds are shown here.
# molecule.smiles, discrete.label
measured = [
    ("c1ccc(-c2csc(Nc3nc(-c4ccccn4)nnc3-c3ccccc3)n2)cc1", "f"),
    ("C[C@@H](Nc1nc(-c2ccccn2)nnc1-c1ccccc1)c1ccccc1", "t"),
    ("COc1cccc(CNc2nc(-c3ccccn3)nnc2-c2ccccc2)c1", "t"),
    ("O=C(NCCCCO)c1cc(-c2ccccc2)on1", "t"),
    ("Cc1ccc(CNc2nc(-c3ccccn3)nnc2-c2ccccc2)cc1", "t"),
    ("CN(C)c1nc(-c2ccccn2)nnc1-c1ccccc1", "t"),
    ("c1ccc(-c2nnc(-c3ccccn3)nc2NCCc2ccccn2)cc1", "t"),
    ("COc1ccc(CNc2nc(-c3ccccn3)nnc2-c2ccccc2)cc1", "t"),
    ("CC(C)(C)c1ccc(CNc2nc(-c3ccccn3)nnc2-c2ccccc2)cc1", "t"),
]

Note: attention shifts to another entry.
Recorded call for `O=C(NCCN1CCOCC1)c1cc(-c2ccccc2)on1` ?
t

The values you see were collected from PubChem BioAssay AID493237.
